Provenance of the data: ChEMBL document CHEMBL4028801

# systemUnderTest: UniProtKB O95342
# Sequence (O95342 whole entry): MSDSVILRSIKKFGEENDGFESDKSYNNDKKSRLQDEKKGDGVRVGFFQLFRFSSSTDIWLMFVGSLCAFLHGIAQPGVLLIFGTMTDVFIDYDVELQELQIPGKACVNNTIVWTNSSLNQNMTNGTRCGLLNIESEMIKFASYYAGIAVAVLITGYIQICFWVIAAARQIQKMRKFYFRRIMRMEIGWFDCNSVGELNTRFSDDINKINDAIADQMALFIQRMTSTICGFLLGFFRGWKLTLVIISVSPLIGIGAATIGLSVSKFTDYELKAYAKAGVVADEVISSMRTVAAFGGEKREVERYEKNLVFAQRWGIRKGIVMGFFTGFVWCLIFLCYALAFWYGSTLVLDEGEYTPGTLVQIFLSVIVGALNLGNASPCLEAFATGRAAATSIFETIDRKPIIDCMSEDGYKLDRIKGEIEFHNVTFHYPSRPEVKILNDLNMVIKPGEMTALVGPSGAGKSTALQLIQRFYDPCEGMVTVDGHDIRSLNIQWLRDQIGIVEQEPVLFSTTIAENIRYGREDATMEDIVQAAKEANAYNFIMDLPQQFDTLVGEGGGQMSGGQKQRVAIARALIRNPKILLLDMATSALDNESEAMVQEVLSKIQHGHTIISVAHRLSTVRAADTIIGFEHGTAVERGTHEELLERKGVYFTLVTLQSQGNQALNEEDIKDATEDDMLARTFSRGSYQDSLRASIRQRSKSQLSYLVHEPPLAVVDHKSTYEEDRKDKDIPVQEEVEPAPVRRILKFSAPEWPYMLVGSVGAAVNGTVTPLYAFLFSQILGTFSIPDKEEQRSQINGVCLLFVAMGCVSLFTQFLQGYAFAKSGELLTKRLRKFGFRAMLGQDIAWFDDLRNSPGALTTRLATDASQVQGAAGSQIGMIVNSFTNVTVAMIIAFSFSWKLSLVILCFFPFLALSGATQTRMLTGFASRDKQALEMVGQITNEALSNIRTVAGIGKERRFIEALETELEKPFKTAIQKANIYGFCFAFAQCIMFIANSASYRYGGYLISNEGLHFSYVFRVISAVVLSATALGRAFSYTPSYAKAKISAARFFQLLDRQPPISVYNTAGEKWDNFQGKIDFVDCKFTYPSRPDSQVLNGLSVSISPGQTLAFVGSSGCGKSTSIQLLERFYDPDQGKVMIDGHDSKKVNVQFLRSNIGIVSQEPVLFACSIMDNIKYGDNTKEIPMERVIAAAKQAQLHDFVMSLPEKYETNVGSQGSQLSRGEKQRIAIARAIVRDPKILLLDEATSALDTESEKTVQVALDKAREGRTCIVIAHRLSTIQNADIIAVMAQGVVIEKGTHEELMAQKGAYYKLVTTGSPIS
# test: Inhibition of human BSEP overexpressed in Sf9 cell membrane vesicles assessed as uptake of [3H]-taurocholate in presence of ATP measured after 15 to 20 mins by membrane vesicle transport assay
In this section, each of the molecules is paired with its reported IC50.

Examples with answers:
- CC(C)(C)c1ccc(C(=O)CCCN2CCC(OC(c3ccccc3)c3ccccc3)CC2)cc1: > 133 µM
- CC(C)(Oc1ccc(C2CC2(Cl)Cl)cc1)C(=O)O (configuration not stated) [CIPROFIBRATE]: > 133 µM

Which IC50 is reported for this molecule? CCN(CC)CCNC(=O)c1ccc(NC(C)=O)cc1 [ACECAINIDE]
> 133 µM

Which IC50 is reported for this molecule? CN(C)CCC(c1ccc(Cl)cc1)c1ccccn1 (configuration not stated)
> 133 µM

Which IC50 is reported for this molecule? Cc1nc(Nc2ncc(C(=O)Nc3c(C)cccc3Cl)s2)cc(N2CCN(CCO)CC2)n1.O
13.1 µM

Which IC50 is reported for this molecule? NC(=O)c1ncn([C@@H]2O[C@H](CO)[C@@H](O)[C@H]2O)n1
> 133 µM

Which IC50 is reported for this molecule? O=C1Nc2ccc(Cl)cc2[C@@](C#CC2CC2)(C(F)(F)F)O1
> 133 µM

Which IC50 is reported for this molecule? Cc1ccnc2c1NC(=O)c1cccnc1N2C1CC1
> 133 µM

Which IC50 is reported for this molecule? O=C1[C@H](CC[C@H](O)c2ccc(F)cc2)[C@@H](c2ccc(O)cc2)N1c1ccc(F)cc1
56 µM

Which IC50 is reported for this molecule? C[C@]12C=CC(=O)N[C@@H]1CC[C@@H]1[C@@H]2CC[C@]2(C)[C@@H](C(=O)Nc3cc(C(F)(F)F)ccc3C(F)(F)F)CC[C@@H]12 [DUTASTERIDE]
29.8 µM

Which IC50 is reported for this molecule? COc1cc(C(=O)NS(=O)(=O)c2ccccc2C)ccc1Cc1cn(C)c2ccc(NC(=O)OC3CCCC3)cc12
11.1 µM

Which IC50 is reported for this molecule? O=C(NCCNCC(O)COc1ccc(O)cc1)N1CCOCC1 (configuration not stated)
> 133 µM
